Source listed as PubChem BioAssay (NCATS).

A collection of molecules and their measured activation
# target-or-system: Cellular tumor antigen p53 (Homo sapiens)
# test-method-notes: Primary qHTS for small molecule compounds that upregulate eGFP-tagged delta133p53alpha (in N-terminal) cells. (AID 2060322);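 further: cells pre-induced with doxycycline then dosed without doxycycline; 0% = DMSO vehicle and 100% = reference activator; nearly all actives have a fitted effect of over 75% in size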
# condition-info: NCI-H358 eGFP-delta133p53alpha fluorescence, 24 h; active compounds read high
Records with an inconclusive call do not appear.
I only need the number, in %, no unit after it.

- CC(=O)C1CCC2C3CCC4C[C@@H](O)CCC4(C)C3CCC12C (stereo partly drawn): -2.33
- CCC1(CC)C(=O)C=CNC1=O: -17.5

Problem: Give measured activation for COc1ccsc1CNCC[C@@]1(c2ccccn2)CCOC2(CCCC2)C1 (Cellular tumor antigen p53 (Homo sapiens)).
Result: -0.333

###

Parameter: activation. Scope: all listed entries.
# target-or-system: Cellular tumor antigen p53 (Homo sapiens) (UniProt P04637)
# Sequence (P04637 whole entry, looked up): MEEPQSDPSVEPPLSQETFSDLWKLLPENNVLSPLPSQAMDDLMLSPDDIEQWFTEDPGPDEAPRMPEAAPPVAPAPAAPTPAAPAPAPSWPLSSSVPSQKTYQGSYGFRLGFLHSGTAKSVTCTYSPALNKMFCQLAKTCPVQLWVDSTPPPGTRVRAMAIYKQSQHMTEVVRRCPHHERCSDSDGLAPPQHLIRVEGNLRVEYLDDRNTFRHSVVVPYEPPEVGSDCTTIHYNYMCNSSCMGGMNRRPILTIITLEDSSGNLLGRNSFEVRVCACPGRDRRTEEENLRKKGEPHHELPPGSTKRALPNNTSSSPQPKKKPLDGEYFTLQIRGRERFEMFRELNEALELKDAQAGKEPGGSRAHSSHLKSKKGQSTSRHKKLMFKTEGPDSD
# test-method-notes: Primary qHTS for small molecule compounds that upregulate eGFP-tagged delta133p53alpha (in N-terminal) cells. (AID 2060322);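 further: cells pre-induced with doxycycline then dosed without doxycycline; 0% = DMSO vehicle and 100% = reference activator; nearly all actives have a fitted effect of over 75% in size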
# condition-info: NCI-H358 eGFP-delta133p53alpha fluorescence, 24 h; active compounds read high
Inconclusive results are not listed.
# unit: % | format: bare number

Answered cases to consult:
• CS(=O)(=O)c1ccc(C(=O)C2C(=O)CCCC2=O)c([N+](=O)[O-])c1 = -5.86
• O=C1CCCN1CC#CCN1CCCC1 = -14.5
• CN(C)CCN(C)CCc1ccc(Cl)c(Cl)c1 = 12
• C[C@]12N[C@H](Cc3ccccc31)c1ccccc12 = -0.686
• CCC1C2CC3C4N(C)c5ccccc5C45CC(C2C5O)N3C1O (centres undefined) = 9.82

Problem: Look up activation of COP(=S)(OC)Oc1ccc(SC)c(C)c1 and report it.
Result: -15.9

Problem: Give activation for COC(=O)C12C(=O)C(C)(O)C(=O)C1(C)C(C)=CC1C34CCC(OC3=O)C(C)(CO)C4CCC12C (centres undefined)
Result: -16.8

Problem: Could you please provide reported activation for c1ccc(CN2CCNCC2)cc1 ? Thanks!
Result: 15.3

###

# target-or-system: Retinal dehydrogenase 2 (Homo sapiens)
# test-method-notes: qHTS for Inhibitors of the Aldehyde Dehydrogenase Family (ALDH1A2) Confirmation screens (AID 2061314); further: nearly all actives have a fitted effect of over 65% in size
# condition-info: ALDH1A2 enzyme inhibition qHTS confirmation; series mostly up to 45.9 µM
Inconclusive results are not listed. Active and inactive are the calls of the source. Calls come from the whole dose curve; as a rule, active = well fitted inhibition curve with a large enough effect; inconclusive = small, poorly fitted or top-dose-only effect; inactive = no such curve, though single readings can be large or run the other way.
Classes to choose from: class 1 for active, class 0 for inactive

As a guide, the following entries are already answered.
• CCCN(CCC)[C@@H]1CCc2ccc3[nH]c(C#N)cc3c2C1 = class 0
• O=S(=O)(Nc1ccc(-c2ccccc2)cc1)c1ccc(NCc2cccc(Cl)c2O)cc1 = class 1
• COc1cc(O)c2c(c1)CCC[C@@H](O)[C@H](O)C(=O)/C=C\C[C@H](C)OC2=O = class 0

Switching to the query record.
Problem: Kindly provide the recorded test outcome for the following compound: Cc1ccc(S(=O)(=O)N[C@@H](CCCCN)C(=O)CCl)cc1
Result: class 1

###

# test-method-notes: BET inhibitor-based combinations targeting novel dependencies in MECOM-rearranged (r) AML: MV-4-11 cell line (AID 2202233); further: nearly all actives have a fitted effect of over 45% in size
# condition-info: MV-4-11 AML viability, CellTiter-Glo luminescence, 48 h; series mostly up to 46 µM
Records with an inconclusive call do not appear. Active and inactive are the calls of the source. The call rests on the fitted dose curve; in most records, active means well fitted inhibition curve with a large enough effect; inconclusive means small, poorly fitted or top-dose-only effect; inactive means no such curve, though single readings can be large or run the other way.
Hello, when you answer, please use one of the following outcomes: active, inactive

• CC(C)C[C@H](CN)CC(=O)O = inactive

Problem: // param item: CC(=O)N1N=C(c2ccc(N)cc2)c2cc3c(cc2C[C@H]1C)OCO3 ; yields the recorded call
Result: inactive

Problem: Name the outcome recorded for CC(=O)Nc1ccc(OC[C@](C)(O)C(=O)Nc2ccc([N+](=O)[O-])c(C(F)(F)F)c2)cc1 in the assay.
Result: inactive

Problem: // return assay outcome for C/C(=C\c1csc(C)n1)[C@@H]1C[C@@H]2O[C@@H]2CCC[C@H](C)[C@H](O)[C@@H](C)C(=O)C(C)(C)[C@@H](O)CC(=O)O1
Result: active

Problem: Please let me know the test result on file for CC(=O)OC[C@H]1O[C@@H]([S-])[C@H](OC(C)=O)[C@@H](OC(C)=O)[C@@H]1OC(C)=O.CC[PH+](CC)CC.[Au] .
Result: active

Problem: Short answer needed: outcome of this test for c1ccc2c(CN3CCNCC3)cccc2c1 ?
Result: inactive

Problem: Outcome logged for CCNC(=O)C[C@@H]1N=C(c2ccc(Cl)cc2)c2cc(OC)ccc2-n2c(C)nnc21 in this assay:
Result: active

###

# target-or-system: Cellular tumor antigen p53 (Homo sapiens) (UniProt P04637)
# test-method-notes: Primary qHTS for small molecule compounds that upregulate eGFP-tagged delta133p53alpha (in N-terminal) cells. (AID 2060322);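 further: cells pre-induced with doxycycline then dosed without doxycycline; 0% = DMSO vehicle and 100% = reference activator; nearly all actives have a fitted effect of over 75% in size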
# condition-info: NCI-H358 eGFP-delta133p53alpha fluorescence, 24 h; active compounds read high
Results filed as inconclusive are left out.
Each entry below lists one item and its recorded activation value.
Output spec: scalar in %, unitless text.

Problem: Could you please provide reported activation for O=C(O)c1ccc2[nH]cc(CCCCN3CC=C(c4ccccc4)CC3)c2c1 ? Thanks!
Result: -5.08

Problem: Provide one value: measured activation of N=c1c2c(-c3ccccc3)c(-c3ccccc3)n(Cc3ccccc3)c2ncn1C1CCC(O)CC1 (stereo unspecified)
Result: 11.7

Problem: Check the records and state activation for CCCn1c(=O)c2[nH]c(C3CCCC3)nc2n(CCCOC(=O)c2ccc(S(=O)(=O)F)cc2)c1=O
Result: 11.3

Problem: State its activation: COc1cc2c(c(OC)c1OC)-c1ccc(SC)c(=O)cc1[C@@H](NC(C)=O)CC2
Result: 8.33

Problem: Identify activation associated with the compound C#C[C@]1(O)C=C[C@@H]2[C@@H]3CCC4=CC(=O)CC[C@@H]4[C@H]3CC[C@@]21CC
Result: -3.53

Problem: Give recorded activation. C=C1C[C@]2(O)[C@@]3(C)CCC(=O)C(C)(C)C3=C(O)C(=O)[C@@]2(C)[C@@H]2C(=O)O[C@@](C)(C(=O)OC)C(=O)[C@@]12C
Result: -4.58

Problem: Annotate the compound CN1C(=O)C(Cc2ccc3ccccc3c2)N=C(c2ccc(O)cc2)c2cc(Cl)ccc21 (stereo unspecified) with its measured activation.
Result: 10.3

Problem: Query activation for CCCN(CCC)C(=O)Cc1c(-c2ccc(Cl)cc2)nc2ccc(Cl)cn12
Result: 29.3

Problem: For the compound COC1(CS(=O)c2ccccc2)CCN(CCc2c[nH]c3ccc(F)cc23)CC1 (stereo unspecified) , give its measured activation value.
Result: -25

Problem: Note activation for the compound shown: CN1CC[C@@]2(C)c3cc(O)ccc3N(C)C12 (stereo partly specified)
Result: -31.1

Problem: Tell me its activation given O=c1c(C2CC(c3ccc(-c4ccc(Br)cc4)cc3)Cc3ccccc32)c(O)sc2ccccc12 (stereo unspecified) as the entry.
Result: -13

Problem: Determine from records and report activation for CC[C@@H](C)[C@H]1C(=O)O[C@H](C(C)C)C(=O)N(C)[C@@H]([C@@H](C)CC)C(=O)O[C@H](C(C)C)C(=O)N(C)[C@@H]([C@H](C)CC)C(=O)O[C@H](C(C)C)C(=O)N1C
Result: 9.82

Problem: // Input: C=C1C[C@@H]2[C@H](CC[C@]3(C)C(=O)CC[C@@H]23)[C@@]2(C)C=CC(=O)C=C12 . Output its activation only.
Result: -17.6

Problem: Please report activation for the following compound: C[C@]12CCC(=O)C(O)=C1CC[C@@H]1[C@H]3CCC(=O)[C@@]3(C)CC[C@@H]12
Result: -8.48

Problem: Look up and report measured activation for this entry: CCOC(=O)C1(c2ccccc2)CCN(CCC(C#N)(c2ccccc2)c2ccccc2)CC1
Result: -1.69

Problem: Report measured activation; entry is NP(N)(=O)NC(=O)c1ccc(F)cc1
Result: -15.1

###

# test-method-notes: qHTS for Inhibitors of the Aldehyde Dehydrogenase Family (ALDH1A2, ALDH1A3, ALDH2, ALDH3A1) (AID 2061307); further: nearly all actives have a fitted effect of over 50% in size; on Potency: test system not described further here; potency means the concentration at half of the fitted maximal effect
# condition-info: ALDH inhibition qHTS; series mostly up to 50.3 µM
Inconclusive results are not listed. Calls of active or inactive are those of the source. Calls come from the whole dose curve; as a rule, active = well fitted inhibition curve with a large enough effect; inconclusive = small, poorly fitted or top-dose-only effect; inactive = no such curve, though single readings can be large or run the other way.
reported-metric: Potency

# example entries with known answers
* N#CC(C#N)=Cc1ccc(O)c(O)c1 | inactive
* CCCN1CCC[C@@H]2Cc3nc(N)ncc3C[C@H]21 | inactive
* Cc1cccc(C)c1OP(=O)(OCc1c(-c2ccccc2)no[n+]1[O-])Oc1c(C)cccc1C | 5.04 µM (active)
* CCCCCn1c(C)c(C(=O)c2ccc(OC)c3ccccc23)c2ccccc21 | inactive
* CN1CCN(c2cnc3c(O)ccc(C(=O)O)c3c2)CC1 | inactive
* O=S(=O)(Nc1ccc(-c2ccccc2)cc1)c1ccc(NCc2cccc(Cl)c2O)cc1 | 25.2 µM (active)
* COc1ccc2c(C(=O)c3ccc(Cl)cc3)c(C)n(CC(=O)O)c2c1 | inactive
* CO[C@@H]1C[C@H](O[C@H]2CC[C@]3(C)C4CC[C@]5(C)[C@@H](C6=CC(=O)OC6)[C@@H](OC(C)=O)C[C@]5(O)C4CC[C@@H]3C2)OC(C)[C@H]1O (some centres undefined) | inactive

Problem: Supply Potency value. Item: NC(=O)COc1c(F)cc(SCCNS(=O)(=O)c2ccccc2)cc1F
Result: 11.3 µM (active)

Problem: Please report Potency for the following compound: COc1cc(N2CCN(C)CC2)ccc1N
Result: inactive

Problem: Determine from records and report Potency for N[C@@]1(c2ccccc2Cl)CCC=CC1=O
Result: inactive
